Entries and their ring closure, isolated yield values follow.
assay: Cys/Cys side-chain stapling of bis-cysteine Omomyc mutants by S-alkylation with bis(bromomethyl)arenes (1.25 eq): 4,4'-bis(bromomethyl)biphenyl for i,i+7 or 1,3-bis(bromomethyl)benzene (with 2 eq TCEP) for i,i+4; pH 8; conditions: the molecule shown is the open-chain precursor; 36-membered ring; 100 mM aq NH4HCO3 pH 8 / 25% MeCN; 0.1 mM
Assay metric: ring closure, isolated yield (%)

INSERT INTO results (substance, measurement) VALUES
  ('H-AMADIGSMATEENC(SH)KRRTHNC(SH)LERQRRNELKRSFFALRDQIPELENNEKAPKVVILKKATAYILSVQAETQKLISEIDLLRKQNEQLKHKLEQLRNSAA-OH', 67),
  ('H-AMADIGSMATEENVKRRTHNC(SH)LERQRRC(SH)ELKRSFFALRDQIPELENNEKAPKVVILKKATAYILSVQAETQKLISEIDLLRKQNEQLKHKLEQLRNSAA-OH', 69),
  ('H-AMADIGSPAAKRVKLDMATEENVKRRTHNC(SH)LERQRRC(SH)ELKRSFFALRDQIPELENNEKAPKVVILKKATAYILSVQAETQKLISEIDLLRKQNEQLKHKLEQLRNSAA-OH', 46),
  ('H-AMADIGSMATEENVKRRTHNC(SH)LERQRRC(SH)ELKRSFFALRDQIPELENNEKAPKVVILKKATAYILSVQAETQKLISEIDLLRKQNEQLKHKLEQLRNSAAPAAKRVKLD-OH', 60);
